# Lookup of reported IC50 keyed by entry
target: FLT3-D835Y (Homo sapiens, UniProt P36888, D835Y); assay: AlphaScreen kinase assay with recombinant enzyme, FLT3-D835Y; conditions: 8pt, GMean

CN[C@H]1CCN(C(=O)c2cccc(-c3cnc4[nH]c(-c5ccccc5)cc4c3)n2)C1 = 0.0001 to 10 µM

Give reported IC50 value for O=S(=O)(NC1CC1)c1cccc(-c2cnc3[nH]c(C#CCO)cc3c2)c1
0.0001 to 10 µM

For the molecule CC(=O)NC1CCN(C(=O)c2cccc(-c3cnc4[nH]c(-c5ccccc5)cc4c3)n2)CC1 , give its measured IC50 value.
0.0001 to 10 µM

Report measured IC50; entry is NC1CCN(C(=O)c2cc(-c3cnc4[nH]c(-c5ccccc5)cc4c3)ccn2)CC1
0.0001 to 10 µM

In one line, give reported IC50 of the entry O=S(=O)(NC1CCNC1)c1cccc(-c2cnc3[nH]c(-c4ccccc4)cc3c2)n1 (stereo not drawn) .
0.0001 to 10 µM

Dear colleague, please send me the reported IC50 for N#Cc1cccc(-c2cc3cc(-c4cccc(C(=O)N5CCC(C#N)C5)n4)cnc3[nH]2)c1 (stereo not drawn) when you can.
0.0001 to 10 µM

State its IC50 for this molecule: O=S(=O)(NC1CC1)c1cccc(-c2cnc3[nH]c(C#CC4CCCCC4)cc3c2)c1
50 to 100 µM

Please look at this molecule and report its IC50: CC(C)(C#N)CNC(=O)c1cccc(-c2cnc3[nH]c(-c4ccnc(C5CC5)c4)cc3c2)n1
0.0001 to 10 µM

Write down IC50 measured for item N[C@H]1CCN(C(=O)c2cccc(-c3cnc4[nH]c(-c5ccccc5)cc4c3)n2)C1
0.0001 to 10 µM

State, in one line, measured IC50 of CNC1CCN(C(=O)c2cccc(-c3cnc4[nH]c(-c5ccccc5)cc4c3)n2)C1 (stereo not drawn)
0.0001 to 10 µM

Fill in IC50 for record CC(C)(C#N)NC(=O)c1cccc(-c2cnc3[nH]c(-c4cnn(C5CCNCC5)c4)cc3c2)n1
0.0001 to 10 µM

Let me know recorded IC50 for CC(C)(C#N)CNC(=O)c1cccc(-c2cnc3[nH]c(-c4ccc(F)cc4)cc3c2)n1 , thanks.
0.0001 to 10 µM

Retrieve IC50 measured for N[C@H]1CCN(C(=O)c2csc(-c3cnc4[nH]c(-c5ccccc5)cc4c3)n2)C1 and print it.
10 to 50 µM

State, in one line, measured IC50 of CC(C)(C#N)NC(=O)c1cccc(-c2cnc3[nH]c(C4=CCS(=O)(=O)CC4)cc3c2)n1
0.0001 to 10 µM

Recall and state the measured IC50 for N#CC1CCN(C(=O)c2cccc(-c3cnc4[nH]c(C5=CCCCC5)cc4c3)n2)C1 (stereo not drawn) .
0.0001 to 10 µM
